Origin of the recorded values: patent US20190119282A1

study target: PAR2 (HT-29 cells, trypsin activation) (Homo sapiens)
Construct: host or cells: HT-29 cells
Sequence (P55085 26-397): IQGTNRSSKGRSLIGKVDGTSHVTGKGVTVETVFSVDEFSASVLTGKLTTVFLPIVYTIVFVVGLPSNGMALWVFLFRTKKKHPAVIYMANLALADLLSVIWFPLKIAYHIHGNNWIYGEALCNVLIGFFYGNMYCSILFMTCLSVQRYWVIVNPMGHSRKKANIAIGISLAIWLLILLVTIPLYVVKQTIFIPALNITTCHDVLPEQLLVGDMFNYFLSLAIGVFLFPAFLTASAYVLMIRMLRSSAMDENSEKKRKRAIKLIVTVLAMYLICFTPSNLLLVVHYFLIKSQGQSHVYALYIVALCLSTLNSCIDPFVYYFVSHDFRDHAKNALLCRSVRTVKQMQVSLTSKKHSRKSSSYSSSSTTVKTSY
experimental details: Ca FLIPR TETRA assay, ANTAGONIST mode, stimulation with 3.1 U/mL trypsin
Type: cell-based
run parameters: HT-29 cells, stimulation with 3.1 U/mL trypsin
Doc: threshold 300 nM (exclusive). Items with IC50 beneath it return 1; others return -1.

1) CC(C)CCCC(=O)N1CCN(C(=O)c2cn3nc(-c4ccc(F)cc4)cc(C(C)C)c3n2)C[C@@H]1C = 1
2) CC(C)c1cc(-c2ccc(F)cc2)nn2cc(C(=O)N3CCN(C(=O)C4(NC(=O)OC(C)(C)C)CCC4)[C@@H](C)C3)nc12 = 1
3) CC(C)c1cc(-c2ccc(F)cc2)nn2cc(C(=O)N3CCOCC3(C)C)nc12 = -1
4) CCC(=O)N1CCN(C(=O)c2cn3nc(-c4ccc(F)cc4)cc(C(F)(F)F)c3n2)CC1 = -1

Exercise: Please let me know if CC(C)c1cc(C2=CCCC2)nn2cc(C(=O)N3CCN(C(=O)C4(O)CCC4)CC3(C)C)nc12 shows IC50 below 300 nM.
Solution: -1

Exercise: Please let me know if CC(C)(O)C(=O)N1CCN(C(=O)c2cn3nc(-c4ccc(F)cc4)cc(C4CC4)c3n2)C(C)(C)C1 shows IC50 below 300 nM.
Solution: -1

Exercise: Please let me know if Cc1cc(-c2ccc(F)cc2)nn2cc(C(=O)N3CCCCCC3)nc12 shows IC50 below 300 nM.
Solution: -1
